Assay: chemical genetic growth profiling, strain panel (AID 1159580);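 further: tested at 20 µM; growth read once vehicle control cultures reached saturation at 30 °C; lower values mean less growth of the strain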
Conditions: S. cerevisiae deletion strains, growth OD, locus YOL136C, strain PFK27, active compounds read low
About 2,000 (36%) of roughly 5,500 compounds were called active. Inconclusive results (about 18%) are left out. The list shows a part of the results.
Classify: fulfilled when normalized growth is strictly less than 0.9; not fulfilled when normalized growth is not.

Answered examples (3):
Item smiles	Label
Cc1cc(Br)c(O)c(/C=N\NC(=S)NC(C)(C)C)c1	not fulfilled
O=C(NNc1cc(C(F)(F)F)cc(C(F)(F)F)c1)c1cnc2n(c1=O)CCS2	not fulfilled
CCCCCCCCCCCCSc1ncn[nH]1	fulfilled

Here is the next item to consider.
Q: Is normalized growth of COc1ccc(Br)c(C(=O)/C(C#N)=C/c2cccs2)c1 strictly below 0.9?
Ans: fulfilled
